# Measured target: panel of more than 300 wild-type and mutant kinases (313 kinase panel) (Homo sapiens)
# Procedure text: Kinase profiling in a biochemical assay panel (mobility shift assays and ELISA), %-inhibition at 1 μM; selectivity entropy
# Condition context: kinase COT; compound at 1 μM
This section presents compounds with their documented %-inhibition of COT values.
Report as a plain number; the unit % is understood.

Use these answered entries as a reference point.
>  <Smiles string>
CCCS(=O)(=O)Nc1ccc(F)c(C(=O)c2c[nH]c3ncc(-c4ccc(Cl)cc4)cc23)c1F

>  <Observed>
4.34

$$$$
>  <Smiles string>
COc1cc2c(Nc3ccc(Br)cc3F)ncnc2cc1OCC1CCN(C)CC1

>  <Observed>
-2.53

$$$$

Now consider a different compound.
Could you share which %-inhibition of COT value was measured for `CO[C@H]1C[C@@H]2CC[C@@H](C)[C@@](O)(O2)C(=O)C(=O)N2CCCC[C@H]2C(=O)O[C@H]([C@H](C)C[C@@H]2CC[C@@H](OC(=O)C(C)(CO)CO)[C@H](OC)C2)CC(=O)[C@H](C)/C=C(\C)[C@@H](O)[C@@H](OC)C(=O)[C@H](C)C[C@H](C)/C=C/C=C/C=C/1C` ? 8

###

# Measured target: panel of more than 300 wild-type and mutant kinases (313 kinase panel) (Homo sapiens, UniProt Q9Y6R4)
# Sequence (Q9Y6R4 whole entry, change not shown): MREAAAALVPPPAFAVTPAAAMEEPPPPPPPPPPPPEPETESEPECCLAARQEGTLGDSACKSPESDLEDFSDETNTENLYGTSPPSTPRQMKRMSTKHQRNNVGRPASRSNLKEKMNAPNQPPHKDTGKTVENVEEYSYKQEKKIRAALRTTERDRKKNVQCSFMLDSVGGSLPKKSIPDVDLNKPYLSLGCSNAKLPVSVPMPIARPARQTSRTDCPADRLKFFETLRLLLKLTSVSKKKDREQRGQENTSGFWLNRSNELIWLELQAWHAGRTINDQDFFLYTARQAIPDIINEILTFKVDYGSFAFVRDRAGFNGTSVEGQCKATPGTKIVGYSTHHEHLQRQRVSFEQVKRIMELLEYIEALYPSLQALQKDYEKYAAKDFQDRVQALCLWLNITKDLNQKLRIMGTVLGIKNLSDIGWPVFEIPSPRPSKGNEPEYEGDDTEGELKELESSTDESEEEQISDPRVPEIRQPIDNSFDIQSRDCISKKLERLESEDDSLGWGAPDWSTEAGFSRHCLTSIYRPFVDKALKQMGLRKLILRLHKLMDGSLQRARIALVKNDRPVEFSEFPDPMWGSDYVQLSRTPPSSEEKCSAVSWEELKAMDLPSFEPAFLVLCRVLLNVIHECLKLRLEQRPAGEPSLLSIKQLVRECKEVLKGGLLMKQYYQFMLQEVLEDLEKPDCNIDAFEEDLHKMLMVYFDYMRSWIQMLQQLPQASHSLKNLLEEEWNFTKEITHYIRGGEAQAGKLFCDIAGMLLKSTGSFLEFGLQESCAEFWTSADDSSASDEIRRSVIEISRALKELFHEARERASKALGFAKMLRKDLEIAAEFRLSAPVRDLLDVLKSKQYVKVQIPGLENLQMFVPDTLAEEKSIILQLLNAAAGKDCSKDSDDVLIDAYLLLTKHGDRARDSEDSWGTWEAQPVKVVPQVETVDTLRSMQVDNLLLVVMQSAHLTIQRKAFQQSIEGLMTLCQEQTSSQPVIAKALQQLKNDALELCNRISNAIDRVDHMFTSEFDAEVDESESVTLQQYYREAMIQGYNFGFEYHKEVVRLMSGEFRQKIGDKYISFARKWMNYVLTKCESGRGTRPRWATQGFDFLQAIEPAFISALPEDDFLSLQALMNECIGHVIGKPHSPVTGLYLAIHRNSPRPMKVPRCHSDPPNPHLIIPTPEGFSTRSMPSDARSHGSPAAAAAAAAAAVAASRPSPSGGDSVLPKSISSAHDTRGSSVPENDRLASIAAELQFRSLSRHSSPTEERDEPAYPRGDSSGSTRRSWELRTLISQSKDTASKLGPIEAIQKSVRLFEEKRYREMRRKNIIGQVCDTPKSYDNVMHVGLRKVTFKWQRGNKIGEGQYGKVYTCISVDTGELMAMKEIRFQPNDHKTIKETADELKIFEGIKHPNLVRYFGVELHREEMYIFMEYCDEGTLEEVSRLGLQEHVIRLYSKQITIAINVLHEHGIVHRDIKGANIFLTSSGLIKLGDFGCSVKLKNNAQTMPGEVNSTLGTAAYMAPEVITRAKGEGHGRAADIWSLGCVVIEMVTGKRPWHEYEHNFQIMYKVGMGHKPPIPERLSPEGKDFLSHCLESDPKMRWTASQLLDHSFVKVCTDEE
# Procedure text: Kinase profiling in a biochemical assay panel (mobility shift assays and ELISA), %-inhibition at 1 μM; selectivity entropy
# Condition context: kinase MAP3K4; compound at 1 μM
This section presents molecules with their documented %-inhibition of MAP3K4 values.

Use these answered entries as a reference point.
>  <Molecule>
CC(C)(C)c1nc(-c2cccc(NS(=O)(=O)c3c(F)cccc3F)c2F)c(-c2ccnc(N)n2)s1 [dabrafenib]

>  <%-inhibition of MAP3K4>
19%

$$$$
>  <Molecule>
CO[C@H]1C[C@@H]2CC[C@@H](C)[C@@](O)(O2)C(=O)C(=O)N2CCCC[C@H]2C(=O)O[C@H]([C@H](C)C[C@@H]2CC[C@@H](OC(=O)C(C)(CO)CO)[C@H](OC)C2)CC(=O)[C@H](C)/C=C(\C)[C@@H](O)[C@@H](OC)C(=O)[C@H](C)C[C@H](C)/C=C/C=C/C=C/1C [temsirolimus]

>  <%-inhibition of MAP3K4>
11%

$$$$
>  <Molecule>
COc1cc2nccc(Oc3ccc(NC(=O)C4(C(=O)Nc5ccc(F)cc5)CC4)cc3)c2cc1OC [cabozantinib]

>  <%-inhibition of MAP3K4>
-0.178%

$$$$
>  <Molecule>
Cc1cn(-c2cc(NC(=O)c3ccc(C)c(Nc4nccc(-c5cccnc5)n4)c3)cc(C(F)(F)F)c2)cn1 [nilotinib]

>  <%-inhibition of MAP3K4>
-18%

$$$$
>  <Molecule>
COc1cc2c(Nc3ccc(Br)cc3F)ncnc2cc1OCC1CCN(C)CC1 [vandetanib]

>  <%-inhibition of MAP3K4>
-10%

$$$$

Could you share which %-inhibition of MAP3K4 value was measured for CC(=O)Nc1cccc(-n2c(=O)n(C3CC3)c(=O)c3c(Nc4ccc(I)cc4F)n(C)c(=O)c(C)c32)c1 [trametinib] ? 6%

###

# Measured target: panel of more than 300 wild-type and mutant kinases (313 kinase panel) (Homo sapiens, UniProt Q16539)
# Sequence (Q16539 whole entry, change not shown): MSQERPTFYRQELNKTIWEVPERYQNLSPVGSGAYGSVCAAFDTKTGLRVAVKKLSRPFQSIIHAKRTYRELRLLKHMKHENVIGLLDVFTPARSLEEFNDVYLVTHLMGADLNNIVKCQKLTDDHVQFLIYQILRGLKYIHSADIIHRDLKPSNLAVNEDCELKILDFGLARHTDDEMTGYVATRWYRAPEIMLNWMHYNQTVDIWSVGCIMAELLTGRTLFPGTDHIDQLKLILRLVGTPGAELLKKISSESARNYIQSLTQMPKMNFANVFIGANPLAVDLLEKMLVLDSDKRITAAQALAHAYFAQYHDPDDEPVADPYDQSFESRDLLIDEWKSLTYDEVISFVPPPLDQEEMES
# Procedure text: Kinase profiling in a biochemical assay panel (mobility shift assays and ELISA), %-inhibition at 1 μM; selectivity entropy
# Condition context: kinase p38α; 1 μM
This section presents compounds with their documented %-inhibition of p38α values.
Report as a plain number; the unit % is understood.

Use these answered entries as a reference point.
>  <Compound>
O=S(=O)(c1cccc2cnccc12)N1CCCNCC1

>  <%-inhibition of p38α / %>
-7

$$$$
>  <Compound>
CCCS(=O)(=O)Nc1ccc(F)c(C(=O)c2c[nH]c3ncc(-c4ccc(Cl)cc4)cc23)c1F

>  <%-inhibition of p38α / %>
10

$$$$

Could you share which %-inhibition of p38α value was measured for COc1cc2nccc(Oc3ccc(NC(=O)C4(C(=O)Nc5ccc(F)cc5)CC4)cc3)c2cc1OC [cabozantinib] ? 37

Could you share which %-inhibition of p38α value was measured for `N#CC[C@H](C1CCCC1)n1cc(-c2ncnc3[nH]ccc23)cn1` ? -2.16

Could you share which %-inhibition of p38α value was measured for `C[C@@H](Oc1cc(-c2cnn(C3CCNCC3)c2)cnc1N)c1c(Cl)ccc(F)c1Cl` ? -2.27

Could you share which %-inhibition of p38α value was measured for `CC(=O)Nc1cccc(-n2c(=O)n(C3CC3)c(=O)c3c(Nc4ccc(I)cc4F)n(C)c(=O)c(C)c32)c1` ? -4

###

# Measured target: panel of more than 300 wild-type and mutant kinases (313 kinase panel) (Homo sapiens, UniProt Q9H093)
# Sequence (Q9H093 1-628): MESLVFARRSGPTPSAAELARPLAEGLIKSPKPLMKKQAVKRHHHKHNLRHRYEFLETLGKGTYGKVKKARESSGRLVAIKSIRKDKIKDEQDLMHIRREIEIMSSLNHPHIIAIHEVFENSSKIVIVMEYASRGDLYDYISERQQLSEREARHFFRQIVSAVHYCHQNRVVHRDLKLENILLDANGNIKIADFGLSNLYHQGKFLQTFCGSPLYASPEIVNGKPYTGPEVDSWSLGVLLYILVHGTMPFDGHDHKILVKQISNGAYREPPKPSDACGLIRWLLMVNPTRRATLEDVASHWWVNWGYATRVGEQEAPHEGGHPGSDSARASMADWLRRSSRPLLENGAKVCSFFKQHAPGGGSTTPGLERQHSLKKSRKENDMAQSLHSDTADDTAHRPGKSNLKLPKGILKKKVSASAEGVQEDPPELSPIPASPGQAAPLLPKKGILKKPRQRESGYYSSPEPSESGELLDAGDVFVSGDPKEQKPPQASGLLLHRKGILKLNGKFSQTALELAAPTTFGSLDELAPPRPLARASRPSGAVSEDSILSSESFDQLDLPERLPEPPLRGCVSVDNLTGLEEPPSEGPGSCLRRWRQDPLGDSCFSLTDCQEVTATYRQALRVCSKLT
# Procedure text: Kinase profiling in a biochemical assay panel (mobility shift assays and ELISA), %-inhibition at 1 μM; selectivity entropy
# Condition context: kinase NuaK2; 1 μM
Measured quantity: %-inhibition of NuaK2 (%)
Report as a plain number; the unit % is understood.

Use these answered entries as a reference point.
>  <Compound>
O=S(=O)(c1cccc2cnccc12)N1CCCNCC1 [fasudil]

>  <Output unit>
%

>  <%-inhibition of NuaK2>
20

$$$$
>  <Compound>
CNC(=O)c1cc(Oc2ccc(NC(=O)Nc3ccc(Cl)c(C(F)(F)F)c3)c(F)c2)ccn1 [regorafenib]

>  <Output unit>
%

>  <%-inhibition of NuaK2>
-24

$$$$
>  <Compound>
C[C@@H](Oc1cc(-c2cnn(C3CCNCC3)c2)cnc1N)c1c(Cl)ccc(F)c1Cl [crizotinib]

>  <Output unit>
%

>  <%-inhibition of NuaK2>
87

$$$$

Now consider a different compound.
Could you share which %-inhibition of NuaK2 value was measured for Cc1nc(Nc2ncc(C(=O)Nc3c(C)cccc3Cl)s2)cc(N2CCN(CCO)CC2)n1 [dasatinib] ? 3

###

This section presents compounds with their documented %-inhibition of PHKG2 values.
# Measured target: panel of more than 300 wild-type and mutant kinases (313 kinase panel) (Homo sapiens)
# Procedure text: Kinase profiling in a biochemical assay panel (mobility shift assays and ELISA), %-inhibition at 1 μM; selectivity entropy
# Condition context: kinase PHKG2; 1 μM
Report as a plain number; the unit % is understood.

Use these answered entries as a reference point.
>  <Compound>
CC(=O)Nc1cccc(-n2c(=O)n(C3CC3)c(=O)c3c(Nc4ccc(I)cc4F)n(C)c(=O)c(C)c32)c1 [trametinib]

>  <Measured target>
panel of more than 300 wild-type and mutant kinases (313 kinase panel) (Homo sapiens)

>  <Measured quantity>
%-inhibition of PHKG2

>  <Observed>
2.81

$$$$
>  <Compound>
O=S(=O)(c1cccc2cnccc12)N1CCCNCC1 [fasudil]

>  <Measured target>
panel of more than 300 wild-type and mutant kinases (313 kinase panel) (Homo sapiens)

>  <Measured quantity>
%-inhibition of PHKG2

>  <Observed>
4

$$$$
>  <Compound>
CC(C)(C)c1nc(-c2cccc(NS(=O)(=O)c3c(F)cccc3F)c2F)c(-c2ccnc(N)n2)s1 [dabrafenib]

>  <Measured target>
panel of more than 300 wild-type and mutant kinases (313 kinase panel) (Homo sapiens)

>  <Measured quantity>
%-inhibition of PHKG2

>  <Observed>
2

$$$$
>  <Compound>
CCCS(=O)(=O)Nc1ccc(F)c(C(=O)c2c[nH]c3ncc(-c4ccc(Cl)cc4)cc23)c1F [vemurafenib]

>  <Measured target>
panel of more than 300 wild-type and mutant kinases (313 kinase panel) (Homo sapiens)

>  <Measured quantity>
%-inhibition of PHKG2

>  <Observed>
-4.37

$$$$
>  <Compound>
COc1cc2nccc(Oc3ccc(NC(=O)C4(C(=O)Nc5ccc(F)cc5)CC4)cc3)c2cc1OC [cabozantinib]

>  <Measured target>
panel of more than 300 wild-type and mutant kinases (313 kinase panel) (Homo sapiens)

>  <Measured quantity>
%-inhibition of PHKG2

>  <Observed>
-0.305

$$$$

Now consider a different compound.
Could you share which %-inhibition of PHKG2 value was measured for CO[C@H]1C[C@@H]2CC[C@@H](C)[C@@](O)(O2)C(=O)C(=O)N2CCCC[C@H]2C(=O)O[C@H]([C@H](C)C[C@@H]2CC[C@@H](OC(=O)C(C)(CO)CO)[C@H](OC)C2)CC(=O)[C@H](C)/C=C(\C)[C@@H](O)[C@@H](OC)C(=O)[C@H](C)C[C@H](C)/C=C/C=C/C=C/1C [temsirolimus] ? -7
